- target_system: ALK2/ACVR1 (Homo sapiens, UniProt Q04771)
- Construct: purchased Reaction Biology Corporation
- Sequence (Q04771 21-509): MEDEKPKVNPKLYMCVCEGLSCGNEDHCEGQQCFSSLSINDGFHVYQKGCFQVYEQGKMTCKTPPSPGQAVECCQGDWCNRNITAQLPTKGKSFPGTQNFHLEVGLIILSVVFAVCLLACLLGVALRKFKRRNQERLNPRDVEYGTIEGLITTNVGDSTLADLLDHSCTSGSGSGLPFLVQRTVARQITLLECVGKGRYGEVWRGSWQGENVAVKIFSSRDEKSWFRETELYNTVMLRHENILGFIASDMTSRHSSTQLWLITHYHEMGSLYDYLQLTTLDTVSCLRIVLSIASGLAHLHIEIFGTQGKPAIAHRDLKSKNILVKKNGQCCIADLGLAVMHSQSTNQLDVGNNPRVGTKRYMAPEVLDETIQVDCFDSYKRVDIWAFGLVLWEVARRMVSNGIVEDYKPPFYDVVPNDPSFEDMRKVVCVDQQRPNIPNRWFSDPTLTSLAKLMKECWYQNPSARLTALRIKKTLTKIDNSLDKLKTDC
- Assay type: biochemical
- condition_info: biochemical ALK5 IC50 / ALK2 IC50

| compound | Fold Selectivity (ALK5/ALK2) |
| --- | --- |
| COc1cc(-c2cncc(-c3ccc(N4CCNCC4)cc3)c2C)cc(OC)c1C(N)=O [Compound 8c] | 9 |
| COc1cc(-c2cncc(-c3ccc(N4CCN(C)CC4)cc3)c2C)cc(F)c1C(N)=O [Compound 26a] | 350 |
| Cc1c(-c2ccc(C(N)=O)cc2)cncc1-c1ccc(N2CCNCC2)cc1 [Compound 20b] | >10 |
| COc1cc(C(N)=O)cc(-c2cncc(-c3ccc(N4CCNCC4)cc3)c2C)c1 [Compound 14b] | >49 |
| COc1c(-c2cncc(-c3ccc(N4CCNCC4)cc3)c2C)csc1C(N)=O [Compound 7b] | >7 |
| COc1cc(-c2cncc(-c3ccc(N4CCNCC4)cc3)c2C)sc1C(N)=O [Compound 7a] | >6 |
| COCc1cc(-c2cncc(-c3ccc(N4CCNCC4)cc3)c2C)ccc1C(N)=O [Compound 20c] | >7 |
| Cc1c(-c2ccc(N3CCNCC3)cc2)cncc1-c1ccc2c(c1)CNC2=O [Compound 20a] | >7 |

* * *

- target_system: CYP2C19 (Homo sapiens, UniProt P33261)
- Sequence (P33261 whole entry): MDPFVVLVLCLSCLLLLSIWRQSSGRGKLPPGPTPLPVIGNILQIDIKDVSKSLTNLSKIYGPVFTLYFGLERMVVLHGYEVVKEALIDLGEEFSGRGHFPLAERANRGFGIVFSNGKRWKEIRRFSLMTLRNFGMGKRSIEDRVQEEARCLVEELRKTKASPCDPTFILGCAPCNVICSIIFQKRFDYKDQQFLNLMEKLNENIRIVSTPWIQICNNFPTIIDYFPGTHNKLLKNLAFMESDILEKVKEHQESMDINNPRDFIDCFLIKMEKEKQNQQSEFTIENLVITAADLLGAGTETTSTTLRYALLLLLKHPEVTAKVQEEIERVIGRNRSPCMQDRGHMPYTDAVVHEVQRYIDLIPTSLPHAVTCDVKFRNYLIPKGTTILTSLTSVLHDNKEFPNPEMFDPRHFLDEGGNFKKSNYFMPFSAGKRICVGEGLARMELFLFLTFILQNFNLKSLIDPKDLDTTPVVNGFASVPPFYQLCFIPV
- condition_info: read-out: CYP2C19 IC50; human liver microsomes

| molecule | IC50 |
| --- | --- |
| COc1cc(-c2cncc(-c3ccc(N4CCN(C)CC4)cc3)c2C)cc(F)c1C(N)=O [Compound 26a] | > 50 µM |
| COc1cc(-c2cncc(-c3ccc(N4C[C@@H](C)N(C)[C@@H](C)C4)cc3)c2C)cc(F)c1C(N)=O [Compound 26c] | > 50 µM |

* * *

Attribute: Fold Selectivity (ALK5/ALK2)
- target_system: ALK2/ACVR1 (Homo sapiens)
- Construct: purchased Reaction Biology Corporation
- Type: biochemical
- condition_info: biochemical ALK5 IC50 / ALK2 IC50
reported_endpoint: Fold Selectivity (ALK5/ALK2)

| compound | operator | endpoint_result |
| --- | --- | --- |
| COc1cc(-c2cncc(-c3ccc(N4CCNCC4)cc3)c2C)cc(F)c1C(N)=O | = | 80 |
| Cc1c(-c2ccc(N3CCNCC3)cc2)cncc1-c1ccc(C(N)=O)c(F)c1 [Compound 20d] | > | 19 |
| COc1cc(-c2cncc(-c3ccc(N4CCN(C(C)C)CC4)cc3)c2C)cc(OC)c1C(N)=O [Compound 26e] | = | 13 |

* * *

- target_system: CYP2B6 (Homo sapiens)
- Sequence (P20813 whole entry): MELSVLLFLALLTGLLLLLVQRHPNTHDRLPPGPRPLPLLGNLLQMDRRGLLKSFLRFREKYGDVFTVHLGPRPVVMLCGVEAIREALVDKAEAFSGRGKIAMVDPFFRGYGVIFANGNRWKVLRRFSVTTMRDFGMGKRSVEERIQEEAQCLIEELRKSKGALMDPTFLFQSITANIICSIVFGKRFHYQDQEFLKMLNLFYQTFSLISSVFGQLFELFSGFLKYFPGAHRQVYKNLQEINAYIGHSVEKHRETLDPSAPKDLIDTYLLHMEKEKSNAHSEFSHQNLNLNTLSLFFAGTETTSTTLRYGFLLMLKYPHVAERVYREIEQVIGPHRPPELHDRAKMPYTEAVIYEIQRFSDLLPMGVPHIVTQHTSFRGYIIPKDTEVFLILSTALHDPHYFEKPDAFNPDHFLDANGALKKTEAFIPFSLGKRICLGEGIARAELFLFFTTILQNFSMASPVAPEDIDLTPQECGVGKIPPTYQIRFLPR
- condition_info: read-out: CYP2B6 IC50; human liver microsomes
reported_endpoint: IC50

| compound | endpoint_result |
| --- | --- |
| COc1cc(-c2cncc(-c3ccc(N4C[C@@H](C)N(C)[C@@H](C)C4)cc3)c2C)cc(F)c1C(N)=O [Compound 26c] | > 50 µM |

* * *

- protocol: Caco-2 permeability assay
- condition_info: human, Caco-2, pH 7.4
Attribute: Papp A→B at 120 min, 5 μM

| molecule | Papp A→B at 120 min, 5 μM [×10⁻⁶ cm/s] |
| --- | --- |
| COc1cc(-c2cncc(-c3ccc(N4CCN(C)CC4)cc3)c2C)cc(OC)c1C(N)=O [Compound 26d] | 0.7 |
| COc1cc(-c2cncc(-c3ccc(N4CCNCC4)cc3)c2C)cc(OC)c1C(N)=O [Compound 8c] | 0.1 |
| COc1cc(-c2cncc(-c3ccc(N4CCN(C(C)C)CC4)cc3)c2C)cc(OC)c1C(N)=O [Compound 26e] | 0.9 |

* * *

- protocol: Caco-2 permeability assay
- condition_info: human, Caco-2, pH 7.4

| molecule | value_unit | Papp B→A at 120 min, 5 μM |
| --- | --- | --- |
| COc1cc(-c2cncc(-c3ccc(N4CCN(C)CC4)cc3)c2C)cc(OC)c1C(N)=O [Compound 26d] | ×10⁻⁶ cm/s | 13.9 |
| COc1cc(-c2cncc(-c3ccc(N4CCN(C(C)C)CC4)cc3)c2C)cc(OC)c1C(N)=O [Compound 26e] | ×10⁻⁶ cm/s | 14.4 |
| COc1cc(-c2cncc(-c3ccc(N4CCNCC4)cc3)c2C)cc(OC)c1C(N)=O [Compound 8c] | ×10⁻⁶ cm/s | 6.1 |
